Record form. Attribute: log10 of koff. Fill in for each entry.
measured target: T1, human IL-2Rα (human, UniProt P01589 22-240, limits assumed)
T1 construct: recombinant protein; also called hu IL-2R; human IL-2Ra
T1 sequence: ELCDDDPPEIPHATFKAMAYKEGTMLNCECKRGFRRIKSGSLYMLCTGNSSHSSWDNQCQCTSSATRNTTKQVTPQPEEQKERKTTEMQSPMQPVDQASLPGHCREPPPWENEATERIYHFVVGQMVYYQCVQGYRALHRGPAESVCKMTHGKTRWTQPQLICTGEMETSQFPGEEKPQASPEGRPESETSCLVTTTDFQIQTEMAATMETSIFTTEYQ
measurement description: SPR, P.E. on immobilised antigen
Friendly reminder: values = log10 of koff, unit s⁻¹.

Problem: What log10 of koff value was documented for this binder, FJ1427_P035MP01A11 (VHH, periplasmic extract; also called clone nr; 81) VHH: QVQLVESGGGLVQPGGSLRLSCAASGRTFETHNMGWFRRAPGKEREFVAVISWNVDSTEYTDSVKGRFTISRDNDKNMVYLQMNSLKPEDTGVYYCAADNIPLSSDMSPTAAEYGYWGQGTQVTVSS ?
Result: -3.11

Problem: Again, but for FJ1427_P035MP01E04 (VHH, periplasmic extract; also called clone nr; 29) VHH: QVQLVESGGGLVQAGDSLRLSCAVSGRSFRNYILAWYRQAPGKEREFLAAISWLDGTFYANSVEGRFTISRDNPKNTVHLQMDGLKPEDTAVYYCAADRGPVRPVLAPDVDYWGQGTQVTVAS
Result: -2.63

Problem: Moving on to the next binder: FJ1427_P035MP05E10 (VHH, periplasmic extract; also called clone nr) VHH: EVQLVESGGGLVQAGGSLRLSCTASGLTFDGYAIGWFRQAPGKEREGVSYITGSDGSTYYIDSVKGRFTISSDIAKSTVYLQMNSLKPEDTAVYYCAVDRLGSRGLYASSWWRSGDMDLWGKGTLVTVSS
Result: -2.77

Problem: // repeat for FJ1427_P035MP05D04 (VHH, periplasmic extract; also called clone nr) VHH: QLQLVESGGGLVQAGGSLRLSCAASGLTFDGYAIGWFRQASGKEREGVSYINGRDGSTFYADSVKGRFIISSDNAKNTVDLQMNSLNPDDAAVYYCAVDRLGSRGAYVSSWWRSPDMDLWGKGTLVTVSS and report
Result: -2.65

Problem: What do we get for FJ1427_P035MP01H11 (VHH, periplasmic extract; also called clone nr; 88) VHH: QVQLVESGGGLVQAGGSLRLSCAASGRTFRTHNMGWFRRAPGKEREFVAAISWNVDNTLYADSVKGRFTISRDNDRNMVYLQMNSLKPEDTAVYFCAADNIPLSSDVRATATEFGYWGQGTRVTVSS ?
Result: -3.14

Problem: And what about the binder 5-MP01F05 (VHH, periplasmic extract; also called FJ1427_P035MP01F05) VHH: EVQLVESGGGLVQAGGSLRLSCAASIRAFTTWSMAWFRQAPGKEREYVARINVSGSVTYYADFVKGRFTISRDNAKKTMYLEMNNLKPEDTALYYCAADRTGVGTNDYNYWGQGTQVTVSS ?
Result: -3.38

Problem: // query: 1-MP01H01 (VHH, periplasmic extract; also called FJ1427_P035MP01H01) VHH: EVQLVESGGGLVQAGGSLRLSCAASGRTFRTHNMGWFRRAPGKEREFVAAISWNVDNTLYADSVKGRFTISRDNGRNMVYLQMNSLKPEDTAVYYCAADNIPLSSDVAATATEYDYWGQGTQVTVSS
Result: -1.64

Problem: Request: FJ1427_P035MP01B12 (VHH, periplasmic extract; also called clone nr; 90) VHH: QVQLQESGGGLVQAGDSLRLSCAASGRSFRNYILAWYRQAPGKEREFLAAISWLDGTFYANSVEGRFTISRDNPKNTVHLQMDGLKPEDTAVYYCAADRGPVRPVLAPDVDYWGQGTQVTVAS
Result: -2.84

Problem: Next entry: 10-MP05F03 (VHH, periplasmic extract; also called FJ1427_P035MP05F03) VHH: QVQLVESGGGLVQAGGSLRLSCAASGIPFDNYAMGWFRQAPGKEREFVAARDLEGIITRYGDSVKGRFTISRGNAKNTVFLQMNSLKPEDTAVYYCAARDGGVVAGSRSSAQYNYWGQGTQVTVSS
Result: -3.19

Problem: How about FJ1427_P035MP01G07 (VHH, periplasmic extract; also called clone nr; 55) VHH: QVQLVESGGGLVQTGDSLRLSCAASGRSFRNYILAWYRQAPGKEREFLAAISWLDGTLYADSVEGRFTISRDNPKNTVHLQMDSLKPEDTAVYYCAADRGPVRPVLAPDVDYWGQGTQVTVSS ?
Result: -2.82

Problem: Entry to check: FJ1427_P035MP05F06 (VHH, periplasmic extract; also called clone nr; 430) VHH: EVQLVESGGGLVQAGDSLRLSCAASGFNFGWHAMGWFRQAPGKEREFVATITWTGRDTYYADSVRGRFTISKDNAKDTLFLQMNSLRPDDTGVYYCAKARERATWAYSEDDCDYWGQGTQVTVSS
Result: -3.17

Problem: Likewise for 8-MP01C12 (VHH, periplasmic extract; also called FJ1427_P035MP01C12) VHH: QVQLVESGGGLVQPGGSLRLSCATSGFTFSNNFMSWVRQAPGKGLEFVSTISYGGESTTYAEAVKGRFTISRDNAKNTLYLQMNNLKPEDTAIYYCAKATSYTSIRGAPRGQGTQVTVSS ?
Result: -3.42

Problem: Record: FJ1427_P035MP01E05 (VHH, periplasmic extract; also called clone nr; 37) VHH: QVQLVESGGGLVQAGGSLRLSCAASGRTFRTHNMGWFRRAPGEEREFVAVISWNVDNKLYADSVKGRFTISRDNGRNMVYLQMNSLKPEDTAVYYCAADNIPLSSDVRATATEFGYWGQGTQVTVSS
Result: -3.30

Problem: Please give the result for FJ1427_P035MP01B01 (VHH, periplasmic extract; also called clone nr) VHH: EVQLVESGGGWVQAGDSLRLSCAASGRTFRNYVMGWFRQVPGKEREFLSVITSLGGTVYADSVANRFTISRDNPKDTVYLQMDSLKPEDTAVYYCAADRGPARYISASDVDYWGQGTQVTASS too.
Result: -2.75

Problem: How about this binder: FJ1427_P035MP01E10 (VHH, periplasmic extract; also called clone nr; 77) VHH: QVQLVESGGGLVQAGDSLRLSCAASGRSFRNYILAWYRQAPGKEREFLAAISWLDGTLYADSVEDRFTISRDNPKNTVHLQMDSLKPEDTAVYYCAADRGPVRPVLAPDVDYWGQGTQVTVSS
Result: -2.92
